# Tested on: rumen fluid
# assay info: In vitro incubation of buffered rumen fluid: volatile fatty acids, methane inhibition and hydrogen
# Type: cell-based, sheep
# run conditions: Ovis aries, 20 h, read-out: VFA production % difference from control, TVFA
Listing of recorded percent change in VFA production versus control at 10 ppm by entry.
Give just the numeric value; % need not be written.

CC(C)CNCC(O)C(Cl)(Cl)Cl (centres unmarked): -29.4

Inquiry: For the molecule shown here, OC(CN1CCCC1)C(Cl)(Cl)Cl (centres unmarked) , give the reported percent change in VFA production versus control at 10 ppm.
Reply text: -10.4

Inquiry: For the molecule shown here, CN1CCN(CC(O)C(Cl)(Cl)Cl)CC1 (centres unmarked) [Compound A, reference compound] , give the reported percent change in VFA production versus control at 10 ppm.
Reply text: -22.6

Inquiry: For the molecule shown here, OC(CN1CCCCC1)C(Cl)(Cl)Cl (centres unmarked) , give the reported percent change in VFA production versus control at 10 ppm.
Reply text: -8.3

Inquiry: For the molecule shown here, CNCC(O)C(Cl)(Cl)Cl (centres unmarked) , give the reported percent change in VFA production versus control at 10 ppm.
Reply text: -28.2

Inquiry: For the molecule shown here, OC(CNC1CCCCC1)C(Cl)(Cl)Cl (centres unmarked) , give the reported percent change in VFA production versus control at 10 ppm.
Reply text: -11.8

Inquiry: For the molecule shown here, CCN(CC)CC(O)C(Cl)(Cl)Cl (centres unmarked) , give the reported percent change in VFA production versus control at 10 ppm.
Reply text: -23

Inquiry: For the molecule shown here, CN(C)CC(O)C(Cl)(Cl)Cl (centres unmarked) , give the reported percent change in VFA production versus control at 10 ppm.
Reply text: -18.4
